# Experiment Description: Human HepG2 cell viability assay in 384 well format
# Assay type: toxicity, cell-based
# Parameters: dose 125 nL, time 70.5 hour; concentration not given beside the values
# Condition Details: HepG2 cells, read-out: Inhibition
Measured cytotoxicity at 70.5 h by item
A number alone suffices; assume %.

Use these answered entries as a reference point.
compound="Cc1nc(CN2CCN(c3ccc4nncn4n3)C(C)C2)oc1C (stereo unspecified)" units_of_measure=% measured_value=-8.63
compound="CC(O)(CNC(=O)NCCc1ccc2c(c1)CCO2)c1ccccc1 (stereo unspecified)" units_of_measure=% measured_value=-0.353
compound="O=C(NCc1ccccn1)C1CN(c2nc3ccccc3s2)CCN1 (stereo unspecified)" units_of_measure=% measured_value=-8.77
compound=COc1cccc(CNCc2c(C)nn(C)c2N(C)C)c1 units_of_measure=% measured_value=0.816
compound=O=C(c1ncccn1)N1C[C@H]2CCC[C@@]2(COCC2CCOCC2)C1 units_of_measure=% measured_value=-15.9

Looking up O=C([C@@H]1CC[C@@H]2[C@@H](CCN2Cc2cccc(F)c2)O1)N1CCCCO1 , I see its cytotoxicity at 70.5 h listed as 5.95

Looking up CC1CCCN1Cc1cccc(C(=O)Nc2ccc3[nH]c(=O)oc3c2)c1 (stereo unspecified) , I see its cytotoxicity at 70.5 h listed as 30.6

Looking up Cc1ccc(Cl)cc1NC(=O)Nc1c[nH]c(=O)[nH]c1=O , I see its cytotoxicity at 70.5 h listed as 0.569

Looking up CC(=O)N1CCCC1c1nc(CN(C)C(=O)C(C)C)cc(N(C)C)n1 (stereo unspecified) , I see its cytotoxicity at 70.5 h listed as -4.11

Looking up CC(C)N1CCCC(c2cc(C(F)(F)F)nc3nccn23)C1 (stereo unspecified) , I see its cytotoxicity at 70.5 h listed as -0.494

Looking up CC(C)CCC1=NC2(CCN(C(=O)N3CCN(C)CC3)CC2)C(=O)N1 , I see its cytotoxicity at 70.5 h listed as 2.1
